molecular target: hAR (Homo sapiens); construct: expressed in transfected cells; host or cells: CV-1 cells (African green monkey kidney fibroblasts); experiment: co-transfection assay, AR antagonist (in presence of DHT), CV-1 cells; assay type: cell-based; conditions: read-out: AR Antagonist CV-1 Cells Potency; hAR in CV-1 cells; DHT at EC50
pIC50: −log10 of the molar value.
PROPERTY_MEASURED: pIC50

MOLECULE | OBSERVED_RESULT
CC1COc2cc3[nH]c(=O)cc(C(F)(F)F)c3cc2N1CC(F)(F)F (single isomer, unassigned; (-)) | < 5.00

---

Target: hAR (Homo sapiens, UniProt P10275)
Construct: expressed in transfected cells; host or cells: CV-1 cells (African green monkey kidney fibroblasts)
Sequence (P10275 1-920): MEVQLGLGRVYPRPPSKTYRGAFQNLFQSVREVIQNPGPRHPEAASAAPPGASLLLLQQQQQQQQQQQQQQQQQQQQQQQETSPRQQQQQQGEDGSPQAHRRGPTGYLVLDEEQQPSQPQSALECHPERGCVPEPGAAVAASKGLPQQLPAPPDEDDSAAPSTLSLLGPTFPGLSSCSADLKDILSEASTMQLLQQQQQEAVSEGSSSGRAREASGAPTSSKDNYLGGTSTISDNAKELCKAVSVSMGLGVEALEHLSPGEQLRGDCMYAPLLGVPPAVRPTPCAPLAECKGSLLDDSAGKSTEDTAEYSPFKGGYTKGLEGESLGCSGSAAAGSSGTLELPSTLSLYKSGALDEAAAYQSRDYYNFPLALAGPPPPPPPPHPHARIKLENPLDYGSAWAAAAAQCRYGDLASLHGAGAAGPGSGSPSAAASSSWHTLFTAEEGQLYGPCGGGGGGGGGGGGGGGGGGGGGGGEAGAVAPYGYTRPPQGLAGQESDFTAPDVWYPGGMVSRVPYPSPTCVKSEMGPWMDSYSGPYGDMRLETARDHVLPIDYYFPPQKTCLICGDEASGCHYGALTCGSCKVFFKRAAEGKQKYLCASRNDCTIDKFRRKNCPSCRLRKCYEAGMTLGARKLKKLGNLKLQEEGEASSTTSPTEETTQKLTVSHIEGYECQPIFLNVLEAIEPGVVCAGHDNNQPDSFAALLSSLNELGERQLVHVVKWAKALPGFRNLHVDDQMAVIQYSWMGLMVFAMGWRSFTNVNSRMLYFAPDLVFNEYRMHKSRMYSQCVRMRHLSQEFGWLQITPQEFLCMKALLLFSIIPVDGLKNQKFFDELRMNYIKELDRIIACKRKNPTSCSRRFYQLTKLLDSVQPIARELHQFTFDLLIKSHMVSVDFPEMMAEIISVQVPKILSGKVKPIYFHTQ
Experiment: co-transfection assay, AR antagonist (in presence of DHT), CV-1 cells
Type: cell-based
Conditions: read-out: AR Potency Antag; Table 2
PROPERTY_MEASURED: IC50

COMPOUND | OBSERVED_RESULT
CC1COc2cc3[nH]c(=O)cc(C(F)(F)F)c3cc2N1CC(F)(F)F (racemic) | > 10 µM

---

Target: hAR (Homo sapiens, UniProt P10275)
Construct: expressed in transfected cells; host or cells: CV-1 cells (African green monkey kidney fibroblasts)
Sequence (P10275 1-920): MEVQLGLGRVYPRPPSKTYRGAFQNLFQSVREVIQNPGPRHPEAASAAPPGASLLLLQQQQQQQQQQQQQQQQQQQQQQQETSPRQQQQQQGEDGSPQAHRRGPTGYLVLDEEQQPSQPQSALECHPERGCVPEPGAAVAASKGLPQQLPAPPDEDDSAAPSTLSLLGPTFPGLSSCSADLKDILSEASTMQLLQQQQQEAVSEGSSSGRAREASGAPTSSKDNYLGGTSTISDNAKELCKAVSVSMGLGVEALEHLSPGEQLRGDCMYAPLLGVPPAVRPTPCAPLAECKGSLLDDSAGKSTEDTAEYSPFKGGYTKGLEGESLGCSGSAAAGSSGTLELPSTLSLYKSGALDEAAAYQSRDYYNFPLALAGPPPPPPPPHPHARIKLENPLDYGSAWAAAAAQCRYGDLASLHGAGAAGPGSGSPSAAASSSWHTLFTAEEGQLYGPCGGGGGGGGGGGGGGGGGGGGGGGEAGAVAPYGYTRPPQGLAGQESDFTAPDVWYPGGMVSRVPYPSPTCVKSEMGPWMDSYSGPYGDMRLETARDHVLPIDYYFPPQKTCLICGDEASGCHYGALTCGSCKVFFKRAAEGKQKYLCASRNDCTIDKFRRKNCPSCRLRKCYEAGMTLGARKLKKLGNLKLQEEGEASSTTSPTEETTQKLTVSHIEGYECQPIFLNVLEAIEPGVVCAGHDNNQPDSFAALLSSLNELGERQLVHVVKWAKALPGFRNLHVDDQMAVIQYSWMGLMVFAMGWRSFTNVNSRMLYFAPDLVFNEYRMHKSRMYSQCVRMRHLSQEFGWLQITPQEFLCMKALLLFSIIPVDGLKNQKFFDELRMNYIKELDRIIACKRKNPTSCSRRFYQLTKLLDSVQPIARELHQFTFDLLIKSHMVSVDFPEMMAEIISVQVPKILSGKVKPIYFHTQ
Assay: co-transfection assay, AR antagonist (in presence of DHT), CV-1 cells
Type: cell-based
PROPERTY_MEASURED: IC50 (nM)

COMPOUND | LT_GT_EQ | OBSERVED_RESULT
Cn1c(=O)cc(C(F)(F)F)c2cc3c(cc21)OCCN3CC(F)(F)F | = | 24
O=c1[nH]c2cc3c(cc2c(C(F)(F)F)c1F)N(CC(F)(F)F)CCO3 | > | 10000
CC[C@@H]1Oc2cc3[nH]c(=O)cc(C(F)(F)F)c3cc2N(CC(F)(F)F)[C@H]1C (racemic) | = | 1340
FC(F)(F)CN1CCOc2cc3[nH]c(=S)cc(C(F)(F)F)c3cc21 | > | 10000
CC(=O)OCC1COc2cc3[nH]c(=O)cc(C(F)(F)F)c3cc2N1CC(F)(F)F (racemic) | > | 10000
CC1COc2cc3[nH]c(=O)cc(C(F)(F)F)c3cc2N1CC(F)(F)F (single isomer, unassigned; (+)) [Compound 124] | > | 10000
O=c1cc(C(F)(F)F)c2cc3c(cc2[nH]1)OCCN3Cc1ccccn1 | = | 632
CCN1CCOc2cc3c(cc21)c(C(F)(F)F)cc(=O)n3C | = | 26

---

Target: hAR (Homo sapiens)
Construct: expressed in transfected cells; host or cells: CV-1 cells (African green monkey kidney fibroblasts)
Sequence (P10275 1-920): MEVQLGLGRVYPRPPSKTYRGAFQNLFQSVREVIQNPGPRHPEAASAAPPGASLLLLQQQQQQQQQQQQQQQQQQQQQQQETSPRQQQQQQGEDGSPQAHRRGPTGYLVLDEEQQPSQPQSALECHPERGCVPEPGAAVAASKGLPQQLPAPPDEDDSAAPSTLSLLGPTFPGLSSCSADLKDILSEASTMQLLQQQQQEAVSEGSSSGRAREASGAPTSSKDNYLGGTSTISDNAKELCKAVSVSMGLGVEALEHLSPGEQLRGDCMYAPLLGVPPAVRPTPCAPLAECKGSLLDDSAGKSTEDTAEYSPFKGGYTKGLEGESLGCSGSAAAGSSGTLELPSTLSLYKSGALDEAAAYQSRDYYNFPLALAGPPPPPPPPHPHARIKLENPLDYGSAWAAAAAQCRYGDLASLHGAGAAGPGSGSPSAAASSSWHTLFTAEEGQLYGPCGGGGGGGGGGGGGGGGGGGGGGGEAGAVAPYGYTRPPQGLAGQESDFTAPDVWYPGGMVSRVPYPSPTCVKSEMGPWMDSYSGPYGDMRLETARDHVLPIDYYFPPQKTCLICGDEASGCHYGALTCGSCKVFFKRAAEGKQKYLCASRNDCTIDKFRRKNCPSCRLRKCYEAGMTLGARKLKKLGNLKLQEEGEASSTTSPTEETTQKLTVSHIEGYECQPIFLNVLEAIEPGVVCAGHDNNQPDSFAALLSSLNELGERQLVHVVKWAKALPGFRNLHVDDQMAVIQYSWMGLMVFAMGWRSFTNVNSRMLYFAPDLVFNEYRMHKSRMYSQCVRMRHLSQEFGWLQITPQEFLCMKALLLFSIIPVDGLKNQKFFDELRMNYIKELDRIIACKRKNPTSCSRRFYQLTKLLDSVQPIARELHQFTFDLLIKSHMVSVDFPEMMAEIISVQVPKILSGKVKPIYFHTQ
Assay: co-transfection assay, AR agonist, CV-1 cells
Type: cell-based
pEC50: −log10 of the molar value.
Entries and their pEC50
PROPERTY_MEASURED: pEC50

MOLECULE | PROPERTY_MEASURED | OBSERVED_RESULT
CCN1CCOc2cc3c(cc21)c(C(F)(F)F)cc(=O)n3C | pEC50 | < 5.00
FC(F)(F)CN1CCOc2cc3[nH]c(=S)cc(C(F)(F)F)c3cc21 | pEC50 | 7.36
O=C1COc2cc3[nH]c(=O)cc(C(F)(F)F)c3cc2N1CC(F)(F)F | pEC50 | < 5.00
CC[C@@H]1Oc2cc3[nH]c(=O)cc(C(F)(F)F)c3cc2N(CC(F)(F)F)[C@H]1C (racemic) | pEC50 | < 5.00
Cn1c(=O)cc(C(F)(F)F)c2cc3c(cc21)OCCN3CC(F)(F)F | pEC50 | < 5.00
CC(C)CN1CCOc2cc3c(cc21)c(C(F)(F)F)cc(=O)n3C | pEC50 | < 5.00
